- measured on: VEGF-R3 (Homo sapiens)
- Construct: made in house; host or cells: Sf9 insect cells (baculovirus)
- Sequence (P35916 25-1363): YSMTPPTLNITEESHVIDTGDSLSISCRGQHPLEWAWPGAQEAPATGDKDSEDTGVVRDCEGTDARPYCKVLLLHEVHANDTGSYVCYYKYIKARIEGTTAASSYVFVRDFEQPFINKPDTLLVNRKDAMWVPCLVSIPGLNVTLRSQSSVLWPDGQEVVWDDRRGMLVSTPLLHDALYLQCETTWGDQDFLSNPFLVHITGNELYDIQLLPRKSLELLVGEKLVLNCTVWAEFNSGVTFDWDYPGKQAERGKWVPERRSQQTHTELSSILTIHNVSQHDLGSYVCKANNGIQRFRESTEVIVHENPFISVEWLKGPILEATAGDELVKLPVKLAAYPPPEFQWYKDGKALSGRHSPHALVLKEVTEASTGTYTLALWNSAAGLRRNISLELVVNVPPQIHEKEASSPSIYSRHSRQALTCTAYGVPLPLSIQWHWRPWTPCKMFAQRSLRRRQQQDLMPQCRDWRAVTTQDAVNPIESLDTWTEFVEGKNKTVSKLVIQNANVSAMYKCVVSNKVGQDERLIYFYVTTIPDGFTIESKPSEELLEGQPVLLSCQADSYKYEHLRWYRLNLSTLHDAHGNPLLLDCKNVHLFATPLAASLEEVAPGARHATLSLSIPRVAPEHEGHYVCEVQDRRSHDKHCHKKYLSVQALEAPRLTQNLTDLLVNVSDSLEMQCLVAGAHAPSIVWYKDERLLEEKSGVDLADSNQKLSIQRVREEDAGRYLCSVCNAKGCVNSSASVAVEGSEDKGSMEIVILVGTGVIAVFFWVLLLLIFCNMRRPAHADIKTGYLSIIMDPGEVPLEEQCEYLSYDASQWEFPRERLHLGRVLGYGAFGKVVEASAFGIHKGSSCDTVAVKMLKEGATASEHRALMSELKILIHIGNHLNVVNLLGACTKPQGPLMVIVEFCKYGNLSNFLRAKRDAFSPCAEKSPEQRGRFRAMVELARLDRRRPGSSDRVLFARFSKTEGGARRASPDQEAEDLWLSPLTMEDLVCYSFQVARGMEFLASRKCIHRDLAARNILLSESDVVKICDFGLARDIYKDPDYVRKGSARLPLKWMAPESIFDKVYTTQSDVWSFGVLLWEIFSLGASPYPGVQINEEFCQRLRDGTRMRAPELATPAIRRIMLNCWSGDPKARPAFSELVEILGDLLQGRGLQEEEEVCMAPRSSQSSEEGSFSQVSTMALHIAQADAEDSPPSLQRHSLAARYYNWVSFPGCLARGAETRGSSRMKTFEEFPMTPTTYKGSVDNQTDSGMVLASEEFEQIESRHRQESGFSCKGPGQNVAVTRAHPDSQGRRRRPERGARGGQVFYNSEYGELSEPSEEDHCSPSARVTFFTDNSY
- assay remarks: In vitro protein kinase assay (radioisotopic 33P, FlashPlate)
- Type: biochemical
- condition details: recombinant human kinase
Entries and their log10(IC50) values follow.
// units: µM (pre-log); metric: IC50; scale: log10

Use the examples below as a reference point.
smiles_input=COc1cc2c(Nc3ncc(CCNC(=O)c4cccc(F)c4)s3)ncnc2cc1OCCCN1CCCC1 measured_on="VEGF-R3 (Homo sapiens)" value_observed=0.34
smiles_input=COc1cc2c(Nc3ncc(CCC(=O)Nc4ccc(F)cc4)s3)ncnc2cc1OCCCN1CCCC1 measured_on="VEGF-R3 (Homo sapiens)" value_observed=-0.96
smiles_input=COc1cc2ncnc(Nc3ncc(CCC(=O)Nc4ccc(F)cc4)s3)c2cc1OC measured_on="VEGF-R3 (Homo sapiens)" value_observed=0.04

VEGF-R3 (Homo sapiens) assay, compound `COc1cc2c(Nc3ncc(CCC(=O)Nc4cccc(F)c4)s3)ncnc2cc1OCCCN1CCCC1` , recorded log10(IC50) = -1.13

VEGF-R3 (Homo sapiens) assay, compound `COC(=O)CCc1cnc(Nc2ncnc3cc(OC)c(OC)cc23)s1` , recorded log10(IC50) = -0.25

VEGF-R3 (Homo sapiens) assay, compound `COc1cc2ncnc(Nc3ncc(CCC(=O)Nc4cccc(F)c4)s3)c2cc1OC` , recorded log10(IC50) = 0.04

VEGF-R3 (Homo sapiens) assay, compound `COc1cc2c(Nc3ncc(CCNC(=O)c4ccccc4)s3)ncnc2cc1OCCCN1CCCC1` , recorded log10(IC50) = 0.45

Reference source: patent US20070149523A1
